- Test system: B. abortus
- method-notes: microbe, parasite or virus in culture
- Type: cell-based
- test-parameters: Brucella abortus, THP-1, 48 h, read-out: IC50, intracellular B. abortus
metric-name: IC50 (µM)
Kindly answer with a numeric value in µM, unit omitted.

For reference, reported IC50 for COCCOC(=O)C1=C(C)NC(C)=C(C(=O)OC/C=C/c2ccccc2)C1c1cccc([N+](=O)[O-])c1 (centres unmarked) [Cilnidipine] stands at 13.5

Next:
// COC(=O)C1=C(C)NC(C)=C(C(=O)OCCN(C)Cc2ccccc2)C1c1cccc([N+](=O)[O-])c1 (centres unmarked) [Nicardipine] : IC50 value = 4.4

====

- method-notes: in vitro
- test-parameters: human
metric-name: CC50 (µM)
Respond numerically; units are µM and should not be typed.

Quick note, CC50 for COC(=O)C1=C(C)NC(C)=C(C(=O)OCCN(C)Cc2ccccc2)C1c1cccc([N+](=O)[O-])c1 (stereo not shown) landed at 49

Value of measured CC50 for the entry `OCCN(CCO)c1nc(N2CCCCC2)c2nc(N(CCO)CCO)nc(N3CCCCC3)c2n1` : 41

Quick note, CC50 for `O=C1CCc2ccc(OCCCCN3CCN(c4cccc(Cl)c4Cl)CC3)cc2N1` landed at 12

Now look at this entry.
GET /value?item= `COc1ccc(CN2CCN(C(c3ccc(F)cc3)c3ccc(F)cc3)CC2)c(OC)c1OC` &field=CC50 returns 50

====

- System: B. ovis
- method-notes: microbe, parasite or virus in culture
- Format: cell-based, Brucella ovis
- test-parameters: Brucella ovis, 48 h, read-out: IC50, axenic B. ovis growth
metric-name: pIC50
Scale for pIC50: -log10 of concentration given in mol/L; no unit attached.

The measured pIC50 associated with COCCOC(=O)C1=C(C)NC(C)=C(C(=O)OC/C=C/c2ccccc2)C1c1cccc([N+](=O)[O-])c1 (centres unmarked) reads 5.29

====

- method-notes: in vitro
- test-parameters: human
Below, each entry is listed alongside its reported CC50.

Note to self: CC50 recorded for c1ccc(-c2ccc(C(c3ccccc3)n3ccnc3)cc2)cc1 (stereo not drawn) [Bifonazole] was > 50 µM

Per the records, this compound ( CCCCN(CCCC)CCC(O)c1cc2c(Cl)cc(Cl)cc2c2cc(C(F)(F)F)ccc12 (stereo not drawn) [Halofantrine] ) has CC50 equal to > 50 µM

Briefly, CC50 measured for COCCOC(=O)C1=C(C)NC(C)=C(C(=O)OC/C=C/c2ccccc2)C1c1cccc([N+](=O)[O-])c1 (stereo not drawn) [Cilnidipine] : > 50 µM

compound CCOc1ccc(NC(C)=O)cc1 [Phenacetin] , CC50 observed: > 50 µM

Measured CC50 of CC(=O)SCC(Cc1ccccc1)C(=O)NCC(=O)OCc1ccccc1 (stereo not drawn) [Racecadotril] : > 50 µM

Further cases:
compound N[C@@H]1C[C@H]1c1ccccc1 (racemic) [Tranylcypromine] , CC50 observed: > 50 µM
